Attribution: paper PMC3796545

B1: L-CICp [human] / ATX1 AXH (residues A567-K689 of human ATX1) [human] (parent complex)
chain 1: VFPWHSLVPFLAPSQ
chain 2: GAMAPPTLPPYFMKGSIIQLANGELKKVEDLKTEDFIQSAEISNDLKIDSSTVERIEDSHSPGVAVIQFAVGEHRAQVSVEVLVEYPFFVFGQGWSSCCPERTSQLFDLPCSKLSVGDVCISLTLK

# Variants of: B1
# assaySummary: ITC; parent: 30 nM
assayEndpoint: pKd
Value format note: pKd is -log10 of concentration (mol/L); just state the number.

Take a look at these entries with their results.
residueSequence | pKd
chain 1 VFPWHSLVPFAAPSQ [chain 1 L11A] | 7.30
chain 1 VFPAHSLVPFLAPSQ [chain 1 W4A] | 5.59
chain 1 VFPWHSLAPFLAPSQ [chain 1 V8A] | 7.15
chain 1 VFPWHSAVPFLAPSQ [chain 1 L7A] | 6.30

(Q) Value lookup for pKd; key = chain 1 AFPWHSLVPFLAPSQ [chain 1 V1A]
(A) 7.70

(Q) Repeat with chain 1 VFPWHSLVPALAPSQ [chain 1 F10A]
(A) 7.22
